Each entry below carries its reported drug sensitivity score.
test system: DU-4475; experiment: drug sensitivity score (DSS), CellTox Green (DSS (AUC-based score)); higher = stronger drug effect (viability inhibition or cytotoxicity); extreme values may be limits of the assay; conditions: incubation time: 72 h
Write the value as a bare number.

Identify the reported drug sensitivity score for the following entry. `Cn1cnc2c(F)c(Nc3ccc(Br)cc3F)c(C(=O)NOCCO)cc21`
1.92

----------
test system: HCC1599; assay: normalised response (% of control), CellTox Green; higher = less cell death (100 = DMSO, 0 = benzethonium chloride kill control); conditions: incubation time: 72 h
recorded.endpoint: normalised response
State the value, then name its unit.

Example results:
| compound | tested.system | normalised response |
| --- | --- | --- |
| COc1cccc2c1C(=O)c1c(O)c3c(c(O)c1C2=O)C[C@@](O)(C(C)=O)C[C@@H]3O[C@H]1C[C@H](N)[C@H](O)[C@H](C)O1 [Daunorubicin] (1000 nM) | HCC1599 | 138% |
| COc1c(C)cnc(Cn2cnc3c(Cl)nc(N)nc32)c1C [BIIB021] (10000 nM) | HCC1599 | 113% |
| Cn1cnc2c(F)c(Nc3ccc(Br)cc3F)c(C(=O)NOCCO)cc21 [MEK-162] (100 nM) | HCC1599 | 90.6% |
| O=c1[nH]cc(F)c(=O)[nH]1 [Fluorouracil] (100 nM) | HCC1599 | 103% |
| CC(=O)O[C@H]1C(=O)[C@@]2(C)[C@H]([C@H](OC(=O)c3ccccc3)[C@]3(O)C[C@H](OC(=O)[C@H](O)[C@@H](NC(=O)c4ccccc4)c4ccccc4)C(C)=C1C3(C)C)[C@]1(OC(C)=O)CO[C@@H]1C[C@@H]2O [Paclitaxel] (100 nM) | HCC1599 | 82.7% |

Identify the reported normalised response for the following entry. COC1=CC(c2cc3ccccc3[nH]2)=N/C1=C\c1[nH]c(C)cc1C [Obatoclax] (100 nM)
98.6%

Identify the reported normalised response for the following entry. CC(C)(C)c1cc(NC(=O)Nc2ccc(-c3cn4c(n3)sc3cc(OCCN5CCOCC5)ccc34)cc2)no1 [Quizartinib] (100 nM)
106%

Identify the reported normalised response for the following entry. Nc1nccc(-c2c(-c3ccc(F)cc3)ncn2C2CCCCC2)n1 (1000 nM)
100%

----------
Each entry below carries its reported drug sensitivity score.
system: HCC1937; assay: drug sensitivity score (DSS), CellTiter-Glo (DSS (AUC-based score)); higher = stronger drug effect (viability inhibition or cytotoxicity); extreme values may be limits of the assay; conditions: incubation time: 72 h
Write the value as a bare number.

| compound | tested.system | drug sensitivity score |
| --- | --- | --- |
| Cc1cc(C(C)Nc2ccccc2)c2nc(N3CCOCC3)cc(=O)n2c1 (stereo not drawn) | HCC1937 | 0 |

Identify the reported drug sensitivity score for the following entry. `COc1cccc2c1C(=O)c1c(O)c3c(c(O)c1C2=O)C[C@@](O)(C(C)=O)C[C@@H]3O[C@H]1C[C@H](N)[C@H](O)[C@H](C)O1`
2.19

Identify the reported drug sensitivity score for the following entry. `C[C@@]1(C(=O)Nc2ccc(F)nc2)CCCN1c1nc(Nc2cc(C3CC3)n[nH]2)c2cccn2n1`
0

----------
tested on: CAL-85-1; assay: normalised viability (% of control), CellTiter-Blue; higher = more viable cells (100 = DMSO, 0 = benzethonium chloride kill control); conditions: incubation time: 72 h
Each entry below carries its reported normalised viability.
Please state the figure in %; there is no need to write the unit.

| compound | tested.system | normalised viability (%) |
| --- | --- | --- |
| COC(=O)C[C@](O)(CCCC(C)(C)O)C(=O)O[C@@H]1C(OC)=C[C@]23CCCN2CCc2cc4c(cc2[C@H]13)OCO4 [Omacetaxine] (1 nM) | CAL-85-1 | 90.6 |
| Cn1cnc2c(F)c(Nc3ccc(Br)cc3F)c(C(=O)NOCCO)cc21 [MEK-162] (0.1 nM) | CAL-85-1 | 91.2 |

Identify the reported normalised viability for the following entry. CC(C)(C)c1cc(NC(=O)Nc2ccc(-c3cn4c(n3)sc3cc(OCCN5CCOCC5)ccc34)cc2)no1 [Quizartinib] (0.1 nM)
89.4

----------
test system: HDQ-P1; test: normalised response (% of control), CellTiter-Glo; higher = more viable cells (100 = DMSO, 0 = benzethonium chloride kill control); conditions: incubation time: 72 h
recorded.endpoint: normalised response (%)
Please state the figure in %; there is no need to write the unit.

| compound | normalised response, % |
| --- | --- |
| CCS(=O)(=O)c1cccc(-c2cc(C(=O)NC3CCN(C)CC3)c(C)c3[nH]c4ncc(C)cc4c23)c1 [TAK-901] (10 nM) | 97 |
| C[C@@H]1CCN(C(=O)CC#N)C[C@@H]1N(C)c1ncnc2[nH]ccc12 [Tofacitinib] (50 nM) | 104 |
| COc1cc(Nc2ncc(F)c(Nc3ccc4c(n3)NC(=O)C(C)(C)O4)n2)cc(OC)c1OC [Tamatinib] (100 nM) | 97.9 |

Identify the reported normalised response for the following entry. FC(F)c1nc2ccccc2n1-c1nc(N2CCOCC2)nc(N2CCOCC2)n1 [ZSTK474] (100 nM)
83.4

Identify the reported normalised response for the following entry. CC(=O)O[C@H]1C(=O)[C@@]2(C)[C@H]([C@H](OC(=O)c3ccccc3)[C@]3(O)C[C@H](OC(=O)[C@H](O)[C@@H](NC(=O)c4ccccc4)c4ccccc4)C(C)=C1C3(C)C)[C@]1(OC(C)=O)CO[C@@H]1C[C@@H]2O [Paclitaxel] (10 nM)
69.1

Identify the reported normalised response for the following entry. CC(C)(C)c1cc(NC(=O)Nc2ccc(-c3cn4c(n3)sc3cc(OCCN5CCOCC5)ccc34)cc2)no1 [Quizartinib] (10 nM)
101

----------
test system: BT-549; assay: normalised response (% of control), CellTiter-Glo; higher = more viable cells (100 = DMSO, 0 = benzethonium chloride kill control); conditions: incubation time: 72 h
Each entry below carries its reported normalised response.
Please state the figure in %; there is no need to write the unit.

| compound | result.unit | normalised response |
| --- | --- | --- |
| Nc1nccc(-c2c(-c3ccc(F)cc3)ncn2C2CCCCC2)n1 (1 nM) | % | 109 |
| Cn1c(=O)c(F)c(Nc2ccc(I)cc2F)c2c(=O)n(C[C@@H](O)CO)cnc21 [TAK-733] (0.1 nM) | % | 91.8 |
| CC(C)C[C@H](NC(=O)[C@H](Cc1ccccc1)NC(=O)c1cnccn1)B(O)O [Bortezomib] (100 nM) | % | 1.75 |

Consider the additional compound presented here.
Look up and report normalised response, with BT-549 as system, for COc1ccc(C2=N[C@@H](c3ccc(Cl)cc3)[C@@H](c3ccc(Cl)cc3)N2C(=O)N2CCNC(=O)C2)c(OC(C)C)c1 [Nutlin-3] (1000 nM)
100

----------
system: MDA-MB-468; assay: normalised response (% of control), CellTox Green; higher = less cell death (100 = DMSO, 0 = benzethonium chloride kill control); conditions: incubation time: 72 h
Each entry below carries its reported normalised response.

| compound | normalised response |
| --- | --- |
| Cn1cnc2c(F)c(Nc3ccc(Br)cc3F)c(C(=O)NOCCO)cc21 [MEK-162] (100 nM) | 139% |
| COC1=C2C[C@@H](C)C[C@H](OC)[C@H](O)[C@@H](C)/C=C(\C)[C@H](OC(N)=O)[C@@H](OC)/C=C\C=C(/C)C(=O)NC(=CC1=O)C2=O [Geldanamycin] (10000 nM) | -27.4% |
| O=c1[nH]cc(F)c(=O)[nH]1 [Fluorouracil] (100 nM) | 99.4% |
| CCS(=O)(=O)c1cccc(-c2cc(C(=O)NC3CCN(C)CC3)c(C)c3[nH]c4ncc(C)cc4c23)c1 [TAK-901] (10 nM) | 77.1% |
| C[C@@H]1CCN(C(=O)CC#N)C[C@@H]1N(C)c1ncnc2[nH]ccc12 [Tofacitinib] (50 nM) | 127% |
| O=c1[nH]c(=O)n([C@H]2C[C@H](O)[C@@H](CO)O2)cc1F [Floxuridine] (1000 nM) | 125% |
| CN1CCN(c2ccc3nc(-c4c(N)c5c(F)cccc5[nH]c4=O)[nH]c3c2)CC1 [Dovitinib] (10000 nM) | 126% |
| C[C@@]1(C(=O)Nc2ccc(F)nc2)CCCN1c1nc(Nc2cc(C3CC3)n[nH]2)c2cccn2n1 (100 nM) | 71.9% |
| C#Cc1cccc(Nc2ncnc3cc(OC)c(OCCCCCCC(=O)NO)cc23)c1 [CUDC-101] (100 nM) | 106% |
| CS(=O)(=O)OCCCCOS(C)(=O)=O [Busulfan] (10000 nM) | 96.5% |

Identify the reported normalised response for the following entry. FC(F)c1nc2ccccc2n1-c1nc(N2CCOCC2)nc(N2CCOCC2)n1 [ZSTK474] (10000 nM)
157%

Identify the reported normalised response for the following entry. CC(C)C[C@H](NC(=O)[C@H](Cc1ccccc1)NC(=O)c1cnccn1)B(O)O [Bortezomib] (100 nM)
-55.4%

Identify the reported normalised response for the following entry. COc1ncc(-c2ccc3nccc(-c4ccnnc4)c3c2)cc1NS(=O)(=O)c1ccc(F)cc1F (1000 nM)
-111%

Identify the reported normalised response for the following entry. FC(F)c1nc2ccccc2n1-c1nc(N2CCOCC2)nc(N2CCOCC2)n1 [ZSTK474] (1000 nM)
79.9%

Identify the reported normalised response for the following entry. CN(c1ccccc1CNc1nc(Nc2ccc3c(c2)CC(=O)N3)ncc1C(F)(F)F)S(C)(=O)=O (10000 nM)
110%

Identify the reported normalised response for the following entry. CC(C)C[C@H](NC(=O)[C@H](Cc1ccccc1)NC(=O)c1cnccn1)B(O)O [Bortezomib] (10 nM)
-99.2%

Identify the reported normalised response for the following entry. C#Cc1cccc(Nc2ncnc3cc(OC)c(OCCCCCCC(=O)NO)cc23)c1 [CUDC-101] (10000 nM)
-22.4%
